Consider the following binders; for each one, report its binding signal.
- ASSAY TARGET: T1, RBFOX1 RRM RbFoxmut (Fox-RRM*) (Homo sapiens, UniProt Q9NWB1 109-208, R118D;E147R;N151S;E152T)
- T1 sequence: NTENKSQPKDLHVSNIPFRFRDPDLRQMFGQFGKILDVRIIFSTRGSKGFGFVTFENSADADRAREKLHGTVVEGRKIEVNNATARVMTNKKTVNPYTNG
- ASSAY SUMMARY: EMSA; HiTS-Eq, 1 nM pool, 10 min; buffer printed only for the single-RNA assays: 10 mM Tris pH 7.5, 150 mM NaCl, 3.4 mM EDTA, 0.001% NP-40, 30 C
- TEST CONTEXT: tags: His6 N-terminal (pET28a); label: 5' 32P
Whole data set: some 16,000 sequences, median “ka relative to ugcaugu” near 0.096, cut for the highest 2% near 0.35. The full list was thinned out, with the highest values kept by preference.

Lookup: // binding signal lookup, key: GGGAGUU (DNA:RNA) RNA: GGGAGACCGGAAUUCAGAUUGUCCGGGAGUUUUAAAUCCCGUCGUAGCCACCA DNA 1: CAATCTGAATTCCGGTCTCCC DNA 2: TGGTGGCTACGACGGGATT
Found: 0.09 KA relative to UGCAUGU

Lookup: Returns the measured binding signal for the input binder. Input: UACCUUG (DNA:RNA) RNA: GGGAGACCGGAAUUCAGAUUGUCCUACCUUGUUAAAUCCCGUCGUAGCCACCA DNA 1: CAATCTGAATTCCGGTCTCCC DNA 2: TGGTGGCTACGACGGGATT
Found: 0.1 KA relative to UGCAUGU

Lookup: For GAGAAAU (DNA:RNA) RNA: GGGAGACCGGAAUUCAGAUUGUCCGAGAAAUUUAAAUCCCGUCGUAGCCACCA DNA 1: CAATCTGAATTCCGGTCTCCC DNA 2: TGGTGGCTACGACGGGATT , what is its reported binding signal?
Found: 0.0893 KA relative to UGCAUGU

Lookup: # input binder: AUUAACG (DNA:RNA) RNA: GGGAGACCGGAAUUCAGAUUGUCCAUUAACGUUAAAUCCCGUCGUAGCCACCA DNA 1: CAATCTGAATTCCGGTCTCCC DNA 2: TGGTGGCTACGACGGGATT ; wanted: its binding signal
Found: 0.134 KA relative to UGCAUGU
